Target: T1, human Nectin-4 extracellular antigen hNectin-4-His (human, UniProt Q96NY8 32-349)
T1 construct: C-terminal 8xHis tag included
T1 sequence: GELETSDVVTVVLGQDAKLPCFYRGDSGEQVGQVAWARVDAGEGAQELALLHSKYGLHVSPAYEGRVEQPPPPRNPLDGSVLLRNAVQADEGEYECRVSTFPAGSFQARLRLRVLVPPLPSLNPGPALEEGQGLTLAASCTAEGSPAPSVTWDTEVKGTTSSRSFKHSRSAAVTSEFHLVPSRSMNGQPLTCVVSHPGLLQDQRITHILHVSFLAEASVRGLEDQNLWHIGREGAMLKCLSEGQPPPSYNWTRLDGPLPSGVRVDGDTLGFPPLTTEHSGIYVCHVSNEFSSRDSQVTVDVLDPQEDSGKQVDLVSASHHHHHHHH
Test: ELISA, phage scFv supernatant 1:50
measure-name: OD value (OD)
Please respond with the number in OD and leave the unit unwritten.

| binder | OD value / OD |
| --- | --- |
| 1F3-1E4 scFv (scFv, V domains shown, phage clone supernatant) VH: EVQLVESGGGLVQPGGSLRLSCAASGFSFGTYGMSWVRQAPGKGLEWVSRISGDSANIRYADSVKGRFTISRDNSKNTLYLQMNSLRAEDTAVYYCARAELLAFDVYTASDYWGQGTLVTVSS VL: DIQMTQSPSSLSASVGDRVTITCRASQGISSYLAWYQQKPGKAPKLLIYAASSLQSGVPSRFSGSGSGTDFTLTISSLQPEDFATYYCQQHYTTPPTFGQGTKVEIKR | 1.61 |
| 10F4-1B9 scFv (scFv, V domains shown, phage clone supernatant) VH: EVQLVESGGGLVQPGGSLRLSCAASGFNFDNYYMSWVRQAPGKGLEWVSSIYQTDASIFYADSVKGRFTISRDNSKNTLYLQMNSLRAEDTAVYYCAREYSDVVDYVSVRTPLDYWGQGTLVTVSS VL: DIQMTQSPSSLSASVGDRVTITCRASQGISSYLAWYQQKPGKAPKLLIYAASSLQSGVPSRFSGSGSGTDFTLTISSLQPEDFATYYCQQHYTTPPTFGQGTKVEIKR | 1.5 |

Now let's try a different one.
Task item: I'd like to know its OD value. The binder in question is 10F4-1F1 scFv (scFv, V domains shown, phage clone supernatant) VH: EVQLVESGGGLVQPGGSLRLSCAASGFSFSNYWMSWVRQAPGKGLEWVSAISPGDGTIFYADSVKGRFTISRDNSKNTLYLQMNSLRAEDTAVYYCAREYSDVVDYVSVRTPLDYWGQGTLVTVSS VL: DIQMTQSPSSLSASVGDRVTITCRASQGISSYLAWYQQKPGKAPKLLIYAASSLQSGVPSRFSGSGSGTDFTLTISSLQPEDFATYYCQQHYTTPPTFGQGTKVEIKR
Reply: 1.63

Measured values drawn from patent US20260144882A1 for this set.
